Biological target: ZFP SBS#502 (synthetic, UniProt P08047)
Sequence (P08047 other isoform, or with tags, fused parts or gaps): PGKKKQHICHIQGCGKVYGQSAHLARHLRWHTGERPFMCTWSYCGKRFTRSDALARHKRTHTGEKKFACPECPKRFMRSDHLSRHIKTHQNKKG
Test: EMSA
Conditions: tags: MBP fusion
pKd: −log10 of the molar value.

{"Binder": "GGGGTGGGA (dsDNA) DNA 1: GGGGTGGGA DNA 2: TCCCACCCC", "pKd": 7.22}
